Each entry below carries its reported MIC.
tested on: Pseudomonas aeruginosa; assay: Antibacterial activity against extended spectrum beta-lactamase IMP-4 producing multidrug resistant Pseudomonas aeruginosa clinical isolates after 18 hrs by broth microdilution method; assay type: functional
Measurement name: MIC

>>> recorded_value("CC1(C)[C@H](NC(=O)/C(=N\\OC(c2cc(=O)c(O)cn2O)C2CC2)c2csc(N)n2)C(=O)N1OS(=O)(=O)O (some centres not stated)")
"0.25 to 4 µg/mL"
>>> recorded_value("CC(C)[C@H](O/N=C(\\C(=O)N[C@@H]1C(=O)N(OS(=O)(=O)O)C1(C)C)c1nc(N)sc1Cl)c1cc(=O)c(O)cn1O")
"0.06 to 1 µg/mL"
>>> recorded_value("CC1(C)[C@H](NC(=O)/C(=N\\OCc2ccn(O)c(=O)c2)c2csc(N)n2)C(=O)N1OS(=O)(=O)O")
"64 µg/mL"
>>> recorded_value("CC(O/N=C(\\C(=O)N[C@@H]1C(=O)N(OS(=O)(=O)O)C1(C)C)c1nc(N)sc1Cl)c1cc(=O)c(O)cn1O (some centres not stated)")
"0.5 to 4 µg/mL"
>>> recorded_value("Cn1nc(O)c(=O)nc1SCCO/N=C(\\C(=O)N[C@@H]1C(=O)N(OS(=O)(=O)O)C1(C)C)c1csc(N)n1")
"16 to 64 µg/mL"
>>> recorded_value("CC(=O)N(O)CCO/N=C(\\C(=O)N[C@@H]1C(=O)N(OS(=O)(=O)O)C1(C)C)c1csc(N)n1")
"≥ 64 µg/mL"
>>> recorded_value("Cc1cc(=O)c(O)cn1CCO/N=C(\\C(=O)N[C@@H]1C(=O)N(OS(=O)(=O)O)C1(C)C)c1csc(N)n1")
"64 µg/mL"

###

tested on: Plasma; experiment: Fraction unbound in human plasma at 10 uM after 4 hrs by LC-MS/MS based rapid equilibrium dialysis method; format: ADME, cell-free
Measurement name: Fu (%)

>>> recorded_value("COC(=O)C(O/N=C(\\C(=O)N[C@@H]1C(=O)N(OS(=O)(=O)O)C1(C)C)c1csc(N)n1)c1cc(=O)c(O)cn1O (stereo not given in full)")
61
>>> recorded_value("CC1(C)[C@H](NC(=O)/C(=N\\OCc2cc(=O)c(O)cn2O)c2csc(N)n2)C(=O)N1OS(=O)(=O)O")
47
>>> recorded_value("CC(C)SCC(O/N=C(\\C(=O)N[C@@H]1C(=O)N(OS(=O)(=O)O)C1(C)C)c1csc(N)n1)c1cc(=O)c(O)cn1O (stereo not given in full)")
21
>>> recorded_value("CC(C)C(O/N=C(\\C(=O)N[C@@H]1C(=O)N(OS(=O)(=O)O)C1(C)C)c1nsc(N)n1)c1cc(=O)c(O)cn1O (stereo not given in full)")
28
>>> recorded_value("CC(C)C(O/N=C(\\C(=O)N[C@@H]1C(=O)N(OS(=O)(=O)O)C1(C)C)c1nc(N)sc1Cl)c1cc(=O)c(O)cn1O (stereo not given in full)")
23

###

system: Escherichia coli; test: Antibacterial activity against extended spectrum beta-lactamases producing Escherichia coli clinical isolates after 18 hrs by broth microdilution method; assay type: functional
Measurement name: MIC

>>> recorded_value("CC(C)[C@H](O/N=C(\\C(=O)N[C@@H]1C(=O)N(OS(=O)(=O)O)C1(C)C)c1nsc(N)n1)c1cc(=O)c(O)cn1O")
"0.5 to 2 µg/mL"
>>> recorded_value("CC1(C)[C@H](NC(=O)/C(=N\\OCc2ccn(O)c(=O)c2)c2csc(N)n2)C(=O)N1OS(=O)(=O)O")
"0.25 to 4 µg/mL"
>>> recorded_value("CO/N=C(\\C(=O)N[C@@H]1C(=O)N2C(C(=O)[O-])=CCS[C@H]12)c1csc(N)n1.[Na+] [CEFTIZOXIME SODIUM]")
"0.5 to 2 µg/mL"
>>> recorded_value("C[C@@H](O)[C@H]1C(=O)N2C(C(=O)O)=C(S[C@@H]3CN[C@H](C(=O)N(C)C)C3)[C@H](C)[C@H]12")
"0.125 to 8 µg/mL"
>>> recorded_value("Cn1nc(O)c(=O)nc1SCCO/N=C(\\C(=O)N[C@@H]1C(=O)N(OS(=O)(=O)O)C1(C)C)c1csc(N)n1")
"1 to 8 µg/mL"
>>> recorded_value("CC(C)[C@@H](O/N=C(\\C(=O)N[C@@H]1C(=O)N(OS(=O)(=O)O)C1(C)C)c1nsc(N)n1)c1cc(=O)c(O)cn1O")
"0.5 to 8 µg/mL"
>>> recorded_value("CC(=O)N(O)CCO/N=C(\\C(=O)N[C@@H]1C(=O)N(OS(=O)(=O)O)C1(C)C)c1csc(N)n1")
"4 to 32 µg/mL"
>>> recorded_value("CC(C)[C@@H](O/N=C(\\C(=O)N[C@@H]1C(=O)N(OS(=O)(=O)O)C1(C)C)c1nc(N)sc1Cl)c1cc(=O)c(O)cn1O")
"0.125 to 1 µg/mL"

###

tested on: Escherichia coli; experiment: Antibacterial activity against extended spectrum beta-lactamases producing Escherichia coli clinical isolates after 18 hrs by broth microdilution method; assay type: functional
Listed below: MIC values for each entry.
Measurement name: MIC

>>> recorded_value("CC1(C)[C@H](NC(=O)/C(=N\\OC(C(=O)O)c2cc(=O)c(O)cn2O)c2csc(N)n2)C(=O)N1OS(=O)(=O)O (some centres not stated)")
"0.125 to 4 µg/mL"
>>> recorded_value("CCC(O/N=C(\\C(=O)N[C@@H]1C(=O)N(OS(=O)(=O)O)C1(C)C)c1csc(N)n1)c1cc(=O)c(O)cn1O (some centres not stated)")
"0.25 to 2 µg/mL"
>>> recorded_value("CC(O/N=C(\\C(=O)N[C@@H]1C(=O)N(OS(=O)(=O)O)C1(C)C)c1csc(N)n1)c1cc(=O)c(O)cn1O (some centres not stated)")
"0.06 to 0.25 µg/mL"
>>> recorded_value("CC1(C)[C@H](NC(=O)/C(=N\\OCc2cc(=O)c(O)cn2O)c2csc(N)n2)C(=O)N1OS(=O)(=O)O")
"0.25 to 1 µg/mL"
>>> recorded_value("CC(C)[C@@H](O/N=C(\\C(=O)N[C@@H]1C(=O)N(OS(=O)(=O)O)C1(C)C)c1csc(N)n1)c1cc(=O)c(O)cn1O")
"0.06 to 2 µg/mL"
>>> recorded_value("CC(C)C(O/N=C(\\C(=O)N[C@@H]1C(=O)N(OS(=O)(=O)O)C1(C)C)c1nsc(N)n1)c1cc(=O)c(O)cn1O (some centres not stated)")
"0.06 to 2 µg/mL"
>>> recorded_value("Cc1cc(=O)c(O)cn1CCO/N=C(\\C(=O)N[C@@H]1C(=O)N(OS(=O)(=O)O)C1(C)C)c1csc(N)n1")
"1 to 64 µg/mL"

###

Reported clearance at 3 h values for the following compounds.
experiment: Clearance in Sprague-Dawley rat at 1 mg/kg, iv measured up to 180 mins by LC-MS/MS analysis; conditions: in vivo
Measurement name: clearance at 3 h

>>> recorded_value("CC1(C)[C@H](NC(=O)/C(=N\\OC(CS(C)(=O)=O)c2cc(=O)c(O)cn2O)c2csc(N)n2)C(=O)N1OS(=O)(=O)O (some centres undefined)")
"9.3 mL/min/kg"
>>> recorded_value("CSCC(O/N=C(\\C(=O)N[C@@H]1C(=O)N(OS(=O)(=O)O)C1(C)C)c1csc(N)n1)c1cc(=O)c(O)cn1O (some centres undefined)")
"26.1 mL/min/kg"
>>> recorded_value("CC(C)[C@H](O/N=C(\\C(=O)N[C@@H]1C(=O)N(OS(=O)(=O)O)C1(C)C)c1csc(N)n1)c1cc(=O)c(O)cn1O")
"28.5 mL/min/kg"
>>> recorded_value("CC(C)C(O/N=C(\\C(=O)N[C@@H]1C(=O)N(OS(=O)(=O)O)C1(C)C)c1nc(N)sc1Cl)c1cc(=O)c(O)cn1O (some centres undefined)")
"26.9 mL/min/kg"

###

assay: Drug degradation in human plasma at 10 uM after 4 hrs by LC-MS/MS analysis; assay type: ADME, cell-free; conditions: read-out: Drug degradation
Measurement name: metabolised at 4 h, 10 µM

>>> recorded_value("CC(C)C(O/N=C(\\C(=O)N[C@@H]1C(=O)N(OS(=O)(=O)O)C1(C)C)c1csc(N)n1)c1cc(=O)c(O)cn1O (some centres undefined)")
"29%"
>>> recorded_value("COC(=O)C(O/N=C(\\C(=O)N[C@@H]1C(=O)N(OS(=O)(=O)O)C1(C)C)c1csc(N)n1)c1cc(=O)c(O)cn1O (some centres undefined)")
"66%"
>>> recorded_value("CC(C)[C@H](O/N=C(\\C(=O)N[C@@H]1C(=O)N(OS(=O)(=O)O)C1(C)C)c1csc(N)n1)c1cc(=O)c(O)cn1O")
"23%"
>>> recorded_value("CC(O/N=C(\\C(=O)N[C@@H]1C(=O)N(OS(=O)(=O)O)C1(C)C)c1nsc(N)n1)c1cc(=O)c(O)cn1O (some centres undefined)")
"13%"
